Let's look at some compounds and their measured TGI.
Test system: NCI-H23 lung
Assay: NCI tumour cell line growth inhibition, 48 h
Measurement Name: TGI

INSERT INTO measurements (compound, value_measured) VALUES
  ('O=C(CN(C(=O)OC12CC3CC(CC(C3)C1)C2)C(=O)OC12CC3CC(CC(C3)C1)C2)Oc1ccc([N+](=O)[O-])cc1', '> 100 µM'),
  ('CC(CCC[C@H](C)CO)[C@H]1[C@@H](O)C(O)C2[C@@H]3C[C@@H](O)C4(O)C[C@@H](O)CC[C@]4(C)C3CC[C@@]21C (stereo not given in full)', '> 100 µM'),
  ('CC(C)C12Cc3c(ccc4ccccc34)OC1(C)Oc1ccc3ccccc3c1C2 (stereo not given)', '> 100 µM'),
  ('O=C1/C=C/[C@@H](O)[C@@H]2C[C@@H](O)C[C@H]2/C=C/CCC[C@H](CCc2cccc3ccccc23)O1', '1.9 µM'),
  ('CCc1c2c(cc3c1CC1(C3)Cc3cc4c(c(C(=O)OC)c3C1)CCCC4)CCCC2 (stereo not given)', '> 100 µM'),
  ('Cc1cccc(-n2c(N)c(-c3nc4ccccc4[nH]3)sc2=S)c1', '> 100 µM'),
  ('COc1cc2c(c(OC)c1OC)C(=O)[C@@H]1[C@H]2N1C(=O)NCCCl', '> 100 µM'),
  ('CC(C)N(O)C(=N)c1ccccc1', '> 100 µM'),
  ('COC1CCON1C(=O)c1ccccc1 (stereo not given)', '> 10 µM'),
  ('CCOC(=O)C(NC(=O)c1ccccc1)(Nc1ccc(S(=O)(=O)Nc2ncccn2)cc1)C(F)(F)F (stereo not given)', '> 100 µM');

###

Tested on: 786-0 renal
Experiment: NCI tumour cell line growth inhibition, 48 h
Measurement Name: TGI

INSERT INTO measurements (compound, measurement_name, value_measured) VALUES
  ('Cc1ccc(Nc2nccc(N(C)c3ccc4c(C)n(C)nc4c3)n2)cc1S(N)(=O)=O', 'TGI', '> 100 µM'),
  ('O=C1c2ccccc2C(=O)N1CCSCC(CO)SCCN1C(=O)c2ccccc2C1=O (stereo unspecified)', 'TGI', '> 100 µM'),
  ('COC(=O)c1ccccc1N(C(=O)c1ccccc1)c1ccccc1C', 'TGI', '> 100 µM'),
  ('C1CSCCSCCCSC2CCCCC2SC1 (stereo unspecified)', 'TGI', '> 100 µM'),
  ('O=P1(c2ccccc2)c2ccccc2-c2ccccc21', 'TGI', '> 100 µM'),
  ('CC(=O)OC1CCC2(C)C(CCC3C2CC(=O)C2(C)C3CC(N3CC3)C2C(C)=O)C1 (stereo unspecified)', 'TGI', '64.4 µM');

###

System: EKVX NSCLC
Assay: NCI tumour cell line growth inhibition, 48 h
Measurement Name: TGI

INSERT INTO results (molecule, assay_target, value_measured) VALUES
  ('COc1cc(-c2nccc3cc(OC)c(OC)cc23)ccc1O', 'EKVX NSCLC', '> 100 µM'),
  ('COc1cc(/C=C(\NC(=O)c2ccccc2)c2nc3ccc4c(c3[nH]2)C(=O)c2ccccc2C4=O)cc(OC)c1OC', 'EKVX NSCLC', '> 100 µM'),
  ('O=C(Cc1ccccc1F)NC1=C(Cl)C(=O)c2ccccc2C1=O', 'EKVX NSCLC', '18 µM'),
  ('CC(=O)Nc1ccc2nc(-c3ccccn3)c(-c3ccccn3)nc2c1', 'EKVX NSCLC', '> 100 µM'),
  ('CC(C)N1CCN(c2ccncc2S(=O)(=O)N2CCCCC2)CC1', 'EKVX NSCLC', '> 100 µM'),
  ('N#CC(/C(CCC(=O)Nc1ccc(Cl)cc1)=N/NC(=O)c1cc2ccccc2cc1O)c1ccccc1 (stereo unspecified)', 'EKVX NSCLC', '> 100 µM'),
  ('CC(=O)Nc1cc2cc(N)ccc2oc1=O', 'EKVX NSCLC', '> 100 µM'),
  ('COc1cccc(C23CCCC(C2)NCC3Br)c1OC (stereo unspecified)', 'EKVX NSCLC', '> 100 µM'),
  ('COc1ccc(OC)c(NCC(=O)Nn2cnc3ccc(S(=O)(=O)Nc4cc(OC)ccc4OC)cc3c2=O)c1', 'EKVX NSCLC', '> 100 µM'),
  ('S=C(N/N=C(\c1ccccc1)c1ccccn1)NC1CCCCC1', 'EKVX NSCLC', '> 100 µM'),
  ('COc1ccc(/C=C2/CSCC3=C2NC(=S)NC3c2ccc(OC)c(OC)c2OC)c(OC)c1OC (stereo unspecified)', 'EKVX NSCLC', '> 100 µM'),
  ('COc1cc2c(c(OC)c1OC)-c1ccc(O)cc1[C@@H](NC(C)=O)CC2', 'EKVX NSCLC', '> 100 µM'),
  ('COc1cccc(/C=N/NC(=O)CSCC(=O)N/N=C/c2cccc(OC)c2OC)c1OC', 'EKVX NSCLC', '> 100 µM'),
  ('NC(=NCc1ccccc1)C(N=Nc1ccccc1)C(=O)NCc1ccccc1 (stereo unspecified)', 'EKVX NSCLC', '23.5 µM'),
  ('COC(=O)c1c(C(=O)OC)c2ccccn2c1-c1cc(OC)c(Br)c(=O)o1', 'EKVX NSCLC', '> 100 µM'),
  ('CCc1c2c(cc3c1CC1(C3)Cc3cc4c(c(C(=O)OC)c3C1)CCCC4)CCCC2 (stereo unspecified)', 'EKVX NSCLC', '83.9 µM'),
  ('CCOC(=O)C(=O)C=P(c1ccccc1)(c1ccccc1)c1ccccc1', 'EKVX NSCLC', '> 100 µM'),
  ('CC1(C)[C@@H]2CC[C@]1(C)[C@H](OC(=O)/C=C/c1ccccc1)C2', 'EKVX NSCLC', '41.8 µM'),
  ('COC(OC)c1cc2c(cc1C=O)OCO2', 'EKVX NSCLC', '> 100 µM'),
  ('CCCc1n(Cc2ccc3ccccc3c2)cc[n+]1Cc1ccc2ccccc2c1', 'EKVX NSCLC', '11.4 µM'),
  ('CC(CC(=O)N1C(=O)C(C)(C)[C@@H](O)[C@H]1CC(C)C(Cl)(Cl)Cl)C(Cl)(Cl)Cl (stereo partly specified)', 'EKVX NSCLC', '> 100 µM'),
  ('O=C1C(=O)N(c2ccc(Cl)cc2)C(=O)C(=O)C1c1nc2ccccc2o1', 'EKVX NSCLC', '> 100 µM'),
  ('O=C(CCl)NCCNc1nccc(Nc2ccc(S(=O)(=O)Nc3ccccn3)cc2)n1', 'EKVX NSCLC', '12.8 µM'),
  ('C=C1C(=O)O[C@H]2[C@H]1CC/C(COC(=O)NCc1c[nH]c3ccccc13)=C\CC[C@@]1(C)O[C@@H]21', 'EKVX NSCLC', '8.84 µM'),
  ('CCC(C)C(N)C(=O)NC(CC(N)=O)C(=O)NC(CC(C)C)C(=O)NC(CCCCN)C(=O)NC(C)C(=O)NC(CC(C)C)C(=O)NC(C)C(=O)NC(C)C(=O)NC(CC(C)C)C(=O)NC(C)C(=O)NC(CCCCN)C(=O)NC(CCCCN)C(=O)NC(C(=O)NC(CC(C)C)C(N)=O)C(C)CC (stereo unspecified)', 'EKVX NSCLC', '18.7 µM'),
  ('COC(=O)C1Cc2ccc(O)c(O)c2CN1 (stereo unspecified)', 'EKVX NSCLC', '> 100 µM'),
  ('COc1cc2c3cc1Oc1c(OC)c(OC)cc4c1C(=NCC4)Cc1ccc(cc1)Oc1cc(ccc1O)C[C@H]3N(C)CC2', 'EKVX NSCLC', '> 100 µM'),
  ('CC(CCC[C@H](C)CO)[C@H]1[C@@H](O)C(O)C2[C@@H]3C[C@@H](O)C4(O)C[C@@H](O)CC[C@]4(C)C3CC[C@@]21C (stereo partly specified)', 'EKVX NSCLC', '> 100 µM'),
  ('CN1CN(C2OC(CO)C(O)C2O)c2nc(N)[nH]c(=O)c21 (stereo unspecified)', 'EKVX NSCLC', '> 100 µM'),
  ('Nc1ccc2[nH]c(-c3cccc(C(F)(F)F)c3)cc(=O)c2c1', 'EKVX NSCLC', '> 100 µM'),
  ('CC(=O)OC1CCC2(C)C(CCC3C2CC(=O)C2(C)C3CC(N3CC3)C2C(C)=O)C1 (stereo unspecified)', 'EKVX NSCLC', '40.9 µM'),
  ('N#CC1(C#N)NC(c2ccccc2)C(C#N)(C#N)NC1c1ccccc1 (stereo unspecified)', 'EKVX NSCLC', '> 100 µM'),
  ('Cc1cc(S(=O)(=O)N2CCNNC2=O)c(S)cc1Cl', 'EKVX NSCLC', '> 100 µM'),
  ('COc1cc(OC)c(C(=O)c2cccs2)cc1N', 'EKVX NSCLC', '> 100 µM'),
  ('C=CCN1/C(=C(\C#N)c2nc3ccccc3[nH]2)Sc2c1nc[nH]c2=O', 'EKVX NSCLC', '> 100 µM'),
  ('O=C(CC1(O)C(=O)N(Cc2ccccc2)c2ccc(Cl)cc21)c1ccc(C(=O)NCC2CCC3(CC2)OOC2(CCCCC2)OO3)cc1 (stereo unspecified)', 'EKVX NSCLC', '1.08 µM');
